Biological target: human active recombinant p38α-6His tagged (Homo sapiens, UniProt Q16539)
Construct: 6His
Sequence (Q16539 whole entry): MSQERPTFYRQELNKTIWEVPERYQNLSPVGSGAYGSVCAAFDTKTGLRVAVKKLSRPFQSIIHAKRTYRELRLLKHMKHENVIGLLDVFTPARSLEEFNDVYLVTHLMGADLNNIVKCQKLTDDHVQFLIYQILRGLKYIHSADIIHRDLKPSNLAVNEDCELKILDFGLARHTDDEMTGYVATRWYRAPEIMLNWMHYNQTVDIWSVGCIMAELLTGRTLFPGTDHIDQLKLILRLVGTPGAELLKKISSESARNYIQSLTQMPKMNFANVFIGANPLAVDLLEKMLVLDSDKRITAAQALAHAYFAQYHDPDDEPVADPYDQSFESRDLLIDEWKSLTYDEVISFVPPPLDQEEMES
Assay: p38 Alpha Enzyme Assay (AlphaScreen, biotinylated-ATF2 substrate)
Assay type: biochemical
Details: pre-incubated 4 hours at 37° C., reaction initiated with ATP; 0.5 nM enzyme; read-out: p38 pIC50 (converted)
Listing of recorded IC50 by entry.
I only need the number, in nM, no unit after it.

molecule: Cc1ccc(C(=O)NC2CC2)cc1-c1ccc2c(=O)n(CC3CC3)cc(CN3CCN[C@@H](C)C3)c2c1
IC50 [nM]: 1
--
molecule: Cc1ccc(C(=O)NC2CC2)cc1-c1ccc2c(=O)n(CC3CC3)cc(C(=O)N3CCC(N)CC3)c2c1
IC50 [nM]: 1.26
--
molecule: Cc1ccc(C(=O)NC2CC2)cc1-c1ccc2c(=O)n(Cc3ccc(Br)cc3)ccc2c1
IC50 [nM]: 2.51
--
molecule: Cc1ccc(C(=O)NC2CC2)cc1-c1ccc2c(=O)n(Cc3ccncc3)cc(C(=O)N3CCC(N(C)C)CC3)c2c1
IC50 [nM]: 7.94
--
molecule: Cc1ccc(C(=O)NC2CC2)cc1-c1ccc2c(=O)n(Cc3ccc(OCCN4CCCC4)nc3)ccc2c1
IC50 [nM]: 0.631
--
molecule: Cc1c(F)cc(C(=O)NC2CC2)cc1-c1ccc2c(=O)n(CC3CC3)cc(CN3CCN(C)CC3)c2c1
IC50 [nM]: 0.1
--
molecule: Cc1ccc(C(=O)NC2CC2)cc1-c1ccc2c(=O)n(Cc3ccccc3)cc(C(=O)NCCN3CCCCC3)c2c1
IC50 [nM]: 2.51
--
molecule: CCNC(=O)c1ccc(C)c(-c2ccc3c(=O)n(Cc4ccccc4)ccc3c2)c1
IC50 [nM]: 7.94
--
molecule: Cc1ccc(C(=O)NC2CC2)cc1-c1ccc2c(=O)n(CC3CC3)cc(COCCN(C)C)c2c1
IC50 [nM]: 3.16
--
molecule: Cc1c(F)cc(C(=O)NC2CC2)cc1-c1ccc2c(=O)n(CC3CC3)cc(CN3CCC[N+]([O-])(CCO)CC3)c2c1 (centres unmarked)
IC50 [nM]: 0.631

Query: Complete the entry with IC50 for `Cc1c(F)cc(C(=O)NC2CC2)cc1-c1ccc2c(=O)n(Cc3ccc(S(C)(=O)=O)cc3)cc(CN3CCN(C)[C@@H](CO)C3)c2c1`
Reply: 0.1

Query: Complete the entry with IC50 for `Cc1c(F)cc(C(=O)NC2CC2)cc1-c1ccc2c(=O)n(Cc3ccc(S(C)(=O)=O)cc3)cc(CN3CCN[C@@H](CO)C3)c2c1`
Reply: 0.0794

Query: Complete the entry with IC50 for `Cc1c(F)cc(C(=O)NC2CC2)cc1-c1ccc2c(=O)n(CC3CC3)cc(CN3CCCN(CCO)CC3)c2c1`
Reply: 0.158

Query: Complete the entry with IC50 for `Cc1ccc(C(=O)NC2CC2)cc1-c1ccc2c(=O)n(Cc3cccc(OCCNCCO)c3)ccc2c1`
Reply: 2

Query: Complete the entry with IC50 for `Cc1ccc(C(=O)NC2CC2)cc1-c1ccc2c(=O)n(Cc3ccc(C(=O)NCCN4CCCC4)cc3)ccc2c1`
Reply: 0.794

Query: Complete the entry with IC50 for `COc1ccc(Cn2ccc3cc(-c4cc(C(=O)NC5CC5)ccc4C)ccc3c2=O)cc1`
Reply: 1

Query: Complete the entry with IC50 for `Cc1ccc(C(=O)NC2CC2)cc1-c1ccc2c(=O)n(CC3CC3)cc(CNCCN(C)C)c2c1`
Reply: 5.01

Query: Complete the entry with IC50 for `Cc1ccc(C(=O)NC2CC2)cc1-c1ccc2c(=O)n(CC3CC3)cc(CNCCCN(C)C)c2c1`
Reply: 10

Query: Complete the entry with IC50 for `Cc1ccc(C(=O)NC2CC2)cc1-c1ccc2c(=O)n(Cc3ccncc3)cc(C(=O)N(C)C3CCN(C)CC3)c2c1`
Reply: 31.6

Query: Complete the entry with IC50 for `Cc1ccc(C(=O)NC2CC2)cc1-c1ccc2c(=O)n(Cc3ccc(C4=CCN(C(=O)OC(C)(C)C)CC4)cc3)ccc2c1`
Reply: 6.31

Query: Complete the entry with IC50 for `Cc1ccc(C(=O)NC2CC2)cc1-c1ccc2c(=O)n(CC3CC3)cc(CN3CCC(N)CC3)c2c1`
Reply: 0.158

Query: Complete the entry with IC50 for `Cc1ccc(C(=O)NC2CC2)cc1-c1ccc2c(=O)n(CC3CC3)cc(C(=O)NC3CCNCC3)c2c1`
Reply: 1.58

Query: Complete the entry with IC50 for `Cc1ccc(C(=O)NC2CC2)cc1-c1ccc2c(=O)n(Cc3ccccc3)cc(C(=O)NCCN(C)C)c2c1`
Reply: 1.26

Query: Complete the entry with IC50 for `CC[C@H]1CN(Cc2cn(CC3CC3)c(=O)c3ccc(-c4cc(C(=O)NC5CC5)cc(F)c4C)cc23)CCN1`
Reply: 0.501

Query: Complete the entry with IC50 for `Cc1ccc(C(=O)NC2CC2)cc1-c1ccc2c(=O)n(Cc3ccc(CN4CCN(C)CC4)cc3)ccc2c1`
Reply: 3.16

Query: Complete the entry with IC50 for `Cc1ccc(C(=O)NC2CC2)cc1-c1ccc2c(=O)n(CC3CC3)cc(C(=O)N3CC[C@@H](N)C3)c2c1`
Reply: 3.98

Query: Complete the entry with IC50 for `Cc1ccc(C(=O)NC2CC2)cc1-c1ccc2c(=O)n(CC3CC3)cc(CN3CCCNCC3)c2c1`
Reply: 0.158

Query: Complete the entry with IC50 for `Cc1ccc(C(=O)NC2CC2)cc1-c1ccc2c(=O)n(Cc3ccc(C(=O)NCCN(C)C)cc3)ccc2c1`
Reply: 1

Query: Complete the entry with IC50 for `CCN1CCC(CNCc2cn(CC3CC3)c(=O)c3ccc(-c4cc(C(=O)NC5CC5)cc(F)c4C)cc23)CC1`
Reply: 7.94
